# PROTOCOL DESCRIPTION: Toxicity in sea urchin embryo assessed as inhibition of embryo development before morula stage after 24 hrs by microscopy
# DETAILS: hemicentrotus pulcherrimus
RECORDED METRIC: LD99
Answer shape: numeric part, then the unit.

Please look up its LD99: CC(C)CC(=O)C[C@@](C)(O)[C@H]1CC[C@H]2[C@@H]3C[C@H](OC4O[C@H](C)[C@@H](O)[C@H](OC5OC[C@@H](OC6O[C@H](CO)[C@@H](O)[C@H](O)[C@H]6OC6O[C@H](C)[C@H](O)[C@H](O)[C@H]6O)[C@H](O)[C@H]5OC5O[C@H](C)[C@@H](O)[C@H](O)[C@H]5O)[C@H]4O)[C@H]4C[C@@H](OS(=O)(=O)[O-])CC[C@]4(C)C3=CC[C@@]21C.[Na+] (stereo partly drawn)
2 µg/mL

Cool, now CC(C)C(C)C(=O)C[C@@](C)(O)[C@H]1CC[C@H]2[C@@H]3C[C@H](OC4O[C@H](C)[C@@H](O)[C@H](OC5OC[C@@H](OC6O[C@H](CO)[C@H](O)[C@H](O)[C@H]6OC6O[C@H](C)[C@H](O)[C@H](OC7O[C@H](C)[C@H](O)[C@H](O)[C@H]7O)[C@H]6O)[C@H](O)[C@H]5OC5O[C@H](C)[C@@H](O)[C@H](O)[C@H]5O)[C@H]4O)[C@H]4C[C@@H](OS(=O)(=O)[O-])CC[C@]4(C)C3=CC[C@@]21C.[Na+] (stereo partly drawn)
2 µg/mL

Consider next the compound CC(C)CC(=O)C[C@@](C)(O)[C@H]1CC[C@H]2[C@@H]3C[C@H](OC4O[C@H](C)[C@@H](O)[C@H](OC5OC[C@@H](OC6O[C@H](C)[C@@H](O)[C@H](O)[C@H]6OC6O[C@H](C)[C@H](O)[C@H](O)[C@H]6O)[C@H](O)[C@H]5OC5O[C@H](C)[C@@H](O)[C@H](O)[C@H]5O)[C@H]4O)[C@H]4C[C@@H](OS(=O)(=O)O)CC[C@]4(C)C3=CC[C@@]21C.N (stereo partly drawn) in the same way.
5 µg/mL

====

# key: entry, value: HI
# PROTOCOL DESCRIPTION: Toxicity in rabbit RBC assessed as hemolytic index
# Type: cell-based, Oryctolagus cuniculus
# DETAILS: erythrocyte
// response body must contain only the number

| MOLECULE | RECORDED METRIC | VALUE |
| --- | --- | --- |
| CC(C)C(C)C(=O)C[C@@](C)(O)[C@H]1CC[C@H]2[C@@H]3C[C@H](OC4O[C@H](C)[C@@H](O)[C@H](OC5OC[C@@H](OC6O[C@H](C)[C@@H](O)[C@H](O)[C@H]6OC6O[C@H](C)[C@H](O)[C@H](OC7O[C@H](C)[C@H](O)[C@H](O)[C@H]7O)[C@H]6O)[C@H](O)[C@H]5OC5O[C@H](C)[C@@H](O)[C@H](O)[C@H]5O)[C@H]4O)[C@H]4C[C@@H](OS(=O)(=O)[O-])CC[C@]4(C)C3=CC[C@@]21C.[Na+] (stereo partly drawn) | HI | 10700 |

What measured HI goes with CC(C)C(C)C(=O)C[C@@](C)(O)[C@H]1CC[C@H]2[C@@H]3C[C@H](OC4O[C@H](C)[C@@H](O)[C@H](OC5OC[C@@H](OC6O[C@H](CO)[C@H](O)[C@H](O)[C@H]6OC6O[C@H](C)[C@H](O)[C@H](O)[C@H]6O)[C@H](O)[C@H]5OC5O[C@H](C)[C@@H](O)[C@H](O)[C@H]5O)[C@H]4O)[C@H]4C[C@@H](OS(=O)(=O)[O-])CC[C@]4(C)C3=CC[C@@]21C.[Na+] (stereo partly drawn) ?
31400

====

# Test system: Patiria pectinifera
# PROTOCOL DESCRIPTION: Inhibition of actin polymerization in starfish during embryogenesis
The source made the active and inactive calls. No cut-off for these calls is given here.
RECORDED METRIC: Activity

| MOLECULE | VALUE |
| --- | --- |
| CC(C)CC(=O)C[C@@](C)(O)[C@H]1CC[C@H]2[C@@H]3C[C@H](OC4O[C@H](C)[C@@H](O)[C@H](OC5OC[C@@H](OC6O[C@H](C)[C@@H](O)[C@H](O)[C@H]6OC6O[C@H](C)[C@H](O)[C@H](O)[C@H]6O)[C@H](O)[C@H]5OC5O[C@H](C)[C@@H](O)[C@H](O)[C@H]5O)[C@H]4O)[C@H]4C[C@@H](OS(=O)(=O)O)CC[C@]4(C)C3=CC[C@@]21C.N (stereo partly drawn) | Active |
| CC(C)=CC(=O)C[C@@](C)(O)[C@H]1CC[C@H]2[C@@H]3C[C@H](OC4O[C@H](C)[C@@H](O)[C@H](OC5OC[C@@H](OC6O[C@H](C)[C@@H](O)[C@H](O)[C@H]6OC6O[C@H](C)[C@H](O)[C@H](O)[C@H]6O)[C@H](O)[C@H]5OC5O[C@H](C)[C@@H](O)[C@H](O)[C@H]5O)[C@H]4O)[C@H]4C[C@@H](OS(=O)(=O)[O-])CC[C@]4(C)C3=CC[C@@]21C.[Na+] (stereo partly drawn) | Active |
| CC(C)CC(=O)C[C@@](C)(O)[C@H]1CC[C@H]2[C@@H]3C[C@H](O[C@@H]4O[C@H](C)C(=O)[C@H](OC5O[C@H](C)[C@@H](OC6O[C@H](C)[C@H](O)[C@H](O)[C@H]6OC6O[C@H](C)[C@H](O)[C@H](O)[C@H]6O)[C@H](O)[C@H]5OC5O[C@H](C)[C@@H](O)[C@H](O)[C@H]5O)[C@H]4O)[C@H]4C[C@@H](OS(=O)(=O)[O-])CC[C@]4(C)C3=CC[C@@]21C.[Na+] (stereo partly drawn) | Active |

====

# PROTOCOL DESCRIPTION: Toxicity in rabbit RBC assessed as hemolytic index
# Format: cell-based, Oryctolagus cuniculus
# DETAILS: erythrocyte
RECORDED METRIC: HI
Give the figure only, with no unit attached.

Returns the measured HI for the input molecule. Input: CC(C)CC(=O)C[C@@](C)(O)[C@H]1CC[C@H]2[C@@H]3C[C@H](OC4O[C@H](C)[C@@H](O)[C@H](OC5OC[C@@H](OC6O[C@H](CO)[C@H](O)[C@H](O)[C@H]6OC6O[C@H](C)[C@H](O)[C@H](O)[C@H]6O)[C@H](O)[C@H]5OC5O[C@H](C)[C@@H](O)[C@H](O)[C@H]5O)[C@H]4O)[C@H]4C[C@@H](OS(=O)(=O)[O-])CC[C@]4(C)C3=CC[C@@]21C.[Na+] (stereo partly specified)
22000

====

# PROTOCOL DESCRIPTION: Toxicity in rabbit RBC assessed as hemolytic index
# Assay type: cell-based, Oryctolagus cuniculus
# DETAILS: erythrocyte
RECORDED METRIC: HI
I only need the number, thanks.

| COMPOUND | HI |
| --- | --- |
| CC(C)CC(=O)C[C@@](C)(O)[C@H]1CC[C@H]2[C@@H]3C[C@H](OC4O[C@H](C)[C@@H](O)[C@H](OC5OC[C@@H](OC6O[C@H](CO)[C@H](O)[C@H](O)[C@H]6OC6O[C@H](C)[C@H](O)[C@H](OC7O[C@H](C)[C@H](O)[C@H](O)[C@H]7O)[C@H]6O)[C@H](O)[C@H]5OC5O[C@H](C)[C@@H](O)[C@H](O)[C@H]5O)[C@H]4O)[C@H]4C[C@@H](OS(=O)(=O)[O-])CC[C@]4(C)C3=CC[C@@]21C.[Na+] (some centres undefined) | 11400 |

Give the measured HI of CC(C)CC(=O)C[C@@](C)(O)[C@H]1CC[C@H]2[C@@H]3C[C@H](OC4O[C@H](C)[C@@H](O)[C@H](OC5OC[C@@H](OC6O[C@H](CO)[C@H](O)[C@H](O)[C@H]6OC6O[C@H](C)[C@H](O)[C@H](OC7O[C@H](CO)[C@H](O)[C@H](O)[C@H]7O)[C@H]6O)[C@H](O)[C@H]5OC5O[C@H](C)[C@@H](O)[C@H](O)[C@H]5O)[C@H]4O)[C@H]4C[C@@H](OS(=O)(=O)[O-])CC[C@]4(C)C3=CC[C@@]21C.[Na+] (some centres undefined) .
5100

Origin of the recorded values: ChEMBL document CHEMBL1151633
